system: OVCAR-4 ovarian; assay: NCI tumour cell line growth inhibition, 48 h
quantityKind: TGI (µM)
Give the value, in units of µM, as a plain number.

smilesData: Cc1ccc(/C=C/C(=N/NC(=O)N/N=C(/C=C/c2ccc(C)cc2)C(C)(C)CN2CCCCC2)C(C)(C)CN2CCCCC2)cc1
TGI [µM]: 4.26

Continue with the compound presented below.
Req: Quick check: TGI on OVCAR-4 ovarian, item C=C1C(=O)O[C@H]2[C@H]1CC(=O)/C(C)=C/CC[C@@]1(C)O[C@@H]21 ?
Resp: 12.9

====

system: IGROV1 ovarian; experiment: NCI tumour cell line growth inhibition, 48 h; in the data active = GI50 below about 0.43 µM; inactive = the rest
Log the outcome using a class from y for active, n for inactive

Answered examples (5):
compound: CN(CCCl)c1ccc(/C=C/C2=[N+](C)c3ccccc3C2(C)C)cc1
assignedCategory: n
//
compound: COc1ccc(-c2c(-c3cc(OC)c4c(c3)OCO4)noc2N)cc1
assignedCategory: y
//
compound: CCN1C(=O)N(c2ccccc2)C2NN=c3s/c(=C4\C(=O)N(C(C)C)c5ccccc54)c(=O)n3C21 (centres undefined)
assignedCategory: n
//
compound: CCCSC1=NC2C(N(CC)C(=O)N2CC)N1/N=C/C=C/c1ccccc1[N+](=O)[O-] (centres undefined)
assignedCategory: n
//
compound: CS(=O)(=O)CCNCc1ccc(-c2ccc3ncnc(Nc4ccc(OCc5ccccc5)c(Cl)c4)c3c2)o1
assignedCategory: n

Req: Record lookup: outcome of this test for CCCCCCCC(=O)SCC/C=C/[C@@H]1CC(=O)NCc2nc(co2)C2=N[C@@](C)(CS2)C(=O)N[C@@H](C(C)C)C(=O)O1 ?
Resp: y

Req: Record lookup: outcome of this test for CC1=C[S+](c2ccccc2)c2cccc3cc4ccccc4c1c23 (centres undefined) ?
Resp: n

Req: Record lookup: outcome of this test for O=C(Oc1ccccc1Cl)c1ccccc1Nc1ccnc(C(F)(F)F)c1 ?
Resp: n

Req: Record lookup: outcome of this test for O=C(CCCCCCSc1nc(-c2ccc(Cl)cc2)cc(-c2ccc(Cl)cc2)n1)NO ?
Resp: n
